- System: male KKA^y mice (obesity/noninsulin-dependent diabetes mellitus model)
- experimentDescription: Blood glucose lowering effect and blood lipid (blood TG and blood FFA) lowering effect in mice
- Type: in vivo
- conditionDetails: Mus musculus, po, 168 h, 1 mg/kg/day oral, once a day over seven days, plasma on the day following final administration, vs control group, read-out: Percent reduction of blood TG level
reportedMetric: inhibition in vivo at 1 mg/kg/day (%)
Express the result in % but write the number alone.

These recorded examples may help you get a feel for the data.
Cc1oc(-c2ccccc2)nc1CCOc1ccc(C[C@H](NCc2ccc(F)cc2)C(=O)[O-])cc1.[Na+]: 47
Cc1oc(-c2ccccc2)nc1CCOc1ccc(C[C@H](NCc2cccc(F)c2F)C(=O)O)cc1: 48
CCOC(=O)[C@H](Cc1ccc(OCCc2nc(-c3ccccc3)oc2C)cc1)NCc1ccc(F)cc1.CS(=O)(=O)O [Compound 38, methanesulfonate]: 33
Cc1oc(-c2ccccc2)nc1CCOc1ccc(C[C@H](NCc2ccccc2)C(=O)O)cc1: 17

Exam item: Entry `Cc1oc(-c2ccccc2)nc1CCOc1ccc(C[C@H](NCc2c(F)cc(F)cc2F)C(=O)O)cc1` , system male KKA^y mice (obesity/noninsulin-dependent diabetes mellitus model): what inhibition in vivo at 1 mg/kg/day was measured?
Marked response: 74

Exam item: Here is the next compound: `Cc1oc(-c2ccccc2)nc1CCOc1ccc(C[C@H](NCc2c(F)cccc2F)C(=O)O)cc1`
Marked response: 65

Exam item: Here is the next compound: `Cc1sc(-c2ccccc2)nc1CCOc1ccc(C[C@H](NCc2ccc(F)cc2)C(=O)O)cc1`
Marked response: 53

Exam item: Here is the next compound: `Cc1ccc(-c2nc(CCOc3ccc(C[C@H](NCc4ccc(F)cc4)C(=O)O)cc3)c(C)o2)cc1`
Marked response: 36

Exam item: Here is the next compound: `Cc1oc(-c2ccccc2)nc1CCOc1ccc(C[C@H](NCc2ccccc2Cl)C(=O)O)cc1`
Marked response: 33
